tested.system: Cytochrome P450 3A4 (Homo sapiens) (UniProt P08684)
Sequence (P08684 whole entry, looked up): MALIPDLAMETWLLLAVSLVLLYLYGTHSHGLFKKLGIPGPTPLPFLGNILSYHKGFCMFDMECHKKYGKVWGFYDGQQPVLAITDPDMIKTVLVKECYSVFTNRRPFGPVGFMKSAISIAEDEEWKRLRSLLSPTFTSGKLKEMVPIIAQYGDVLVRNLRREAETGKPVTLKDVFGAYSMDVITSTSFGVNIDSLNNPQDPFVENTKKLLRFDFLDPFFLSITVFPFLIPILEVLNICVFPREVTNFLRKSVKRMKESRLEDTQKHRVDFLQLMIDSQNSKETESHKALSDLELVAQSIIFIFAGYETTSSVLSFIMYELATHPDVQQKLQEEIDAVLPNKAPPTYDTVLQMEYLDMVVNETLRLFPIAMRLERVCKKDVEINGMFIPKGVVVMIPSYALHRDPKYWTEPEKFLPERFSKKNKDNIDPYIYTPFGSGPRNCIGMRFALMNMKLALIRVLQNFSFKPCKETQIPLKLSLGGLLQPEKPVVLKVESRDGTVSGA
experiment.summary: Cytochrome P450 Family 3 Subfamily A Member 4 (CYP3A4) small molecule antagonists: luciferase reporter qHTS assay (AID 1671201); also: nearly all actives have a fitted effect of over 50% in size
cond: P450-Glo CYP3A4 enzyme, luciferin luminescence, 1 h; series mostly up to 115 µM
Results filed as inconclusive are left out. The source made the active and inactive calls. Calls follow the shape of the dose curve; as a rule, active = well fitted inhibition curve with a large enough effect in the repeat runs; inconclusive = weak or mixed curves; inactive = no such curve, though single readings can be large or run the other way.
Classes used: label 1 = active, label 0 = inactive

                                 compound  class_label
0        C[C@H]1[C@@H](c2ccccc2)NC(=O)N1C      label 0
1      CCCCC1CCC(O)CC1 (stereo not drawn)      label 0
2  CC(=O)O[C@H]1C[C@@H]2CC[C@@]1(C)C2(C)C      label 0
3         CC(C)Cn1cnc2c1c(=O)n(C)c(=O)n2C      label 0
4           CC1OCCC1=O (stereo not drawn)      label 0
5                          CCOc1cccc(N)c1      label 1
6                     CCCCOC(=O)[C@H](C)O      label 0
7                              O=C1CCCCO1      label 0

====

experiment.summary: qHTS assay to test for compound auto fluorescence at 535 nm (green) in HepG2 cells (AID 720675); also: % is scaled to controls: 0 for no effect and ±100 for the full control effect
cond: green autofluorescence 485/535 nm, 1 h; series mostly up to 91.3 µM
Activity calls are given as the source filed them. The call rests on the fitted dose curve; in most records, active means well fitted curve in the direction sought with a large enough effect in the repeat runs; inconclusive means weak or mixed curves; inactive means flat fitted curve, though single readings scatter.
measure: fluorescence, % of fluorescein control

                                    compound                                 measure                   endpoint_value
 0           CC(C)Cn1cnc2c1c(=O)n(C)c(=O)n2C  fluorescence, % of fluorescein control                         inactive
 1  CO[Si](CCCn1c(=O)n(CCC[Si](OC)(OC)OC)c(=O)n(CCC[Si](OC)(OC)OC)c1=O)(OC)OC  fluorescence, % of fluorescein control                         inactive
 2  O=C(O)CSCC(=O)NC1CCSC1=O (centres undefined)  fluorescence, % of fluorescein control                         inactive
 3            O=[N+]([O-])c1c(Cl)cc(Cl)cc1Cl  fluorescence, % of fluorescein control                         inactive
 4                          O=Cc1cc2ccccc2o1  fluorescence, % of fluorescein control                         inactive
 5                           C/C=C(\C)C(C)=O  fluorescence, % of fluorescein control                         inactive
 6                                 CCCCSCCCC  fluorescence, % of fluorescein control                         inactive
 7  CC1c2ccccc2CN1NC(=O)c1ccc(Cl)c(S(N)(=O)=O)c1 (centres undefined)  fluorescence, % of fluorescein control                         inactive
 8                 c1ccc2c(CC3=NCCN3)cccc2c1  fluorescence, % of fluorescein control                         inactive
 9                                   CC(C)CO  fluorescence, % of fluorescein control                         inactive
10                                 C=CCSSCCC  fluorescence, % of fluorescein control                         inactive
11  CC1CCc2c(N3CCC(O)CC3)c(F)cc3c(=O)c(C(=O)O)cn1c23 (centres undefined)  fluorescence, % of fluorescein control                         inactive
12                     CC(C)CCOC(=O)c1ccccc1  fluorescence, % of fluorescein control                         inactive
13  CC/C(C)=N\O[Si](C)(O/N=C(\C)CC)O/N=C(\C)CC  fluorescence, % of fluorescein control                         inactive
14                        CCCCCC/C=C/C(=O)OC  fluorescence, % of fluorescein control                         inactive
15                                ONc1ccccc1  fluorescence, % of fluorescein control                         inactive
16                          C[C@@H](O)C(=O)O  fluorescence, % of fluorescein control                         inactive
17                    CCC(=O)c1c(O)cc(O)cc1O  fluorescence, % of fluorescein control                         inactive
18  CN1C[C@@H]2C[C@H]1CN2c1cc2c(cc1F)c(=O)c(C(=O)O)cn2C1CC1  fluorescence, % of fluorescein control                         inactive
19                  Cn1nnc2c(C(N)=O)ncn2c1=O  fluorescence, % of fluorescein control                         inactive
20                    NCc1ccc(S(N)(=O)=O)cc1  fluorescence, % of fluorescein control  -0.119% [at 18.6 µM] (inactive)
21            CC(=O)O[Si](C)(OC(C)=O)OC(C)=O  fluorescence, % of fluorescein control                         inactive
22  OCC(O)CN1CCN(c2ccccc2)CC1 (centres undefined)  fluorescence, % of fluorescein control                         inactive
23      CC(C)=CCC[C@@](C)(O)[C@H]1CC=C(C)CC1  fluorescence, % of fluorescein control                         inactive
24                           CCCCCCCCCCCCCBr  fluorescence, % of fluorescein control                         inactive
25     CCn1cc(C(=O)O)c(=O)c2cnc(N3CCCC3)nc21  fluorescence, % of fluorescein control  -0.162% [at 18.6 µM] (inactive)
26  CC(=O)C1C(=O)C=C(C)OC1=O (centres undefined)  fluorescence, % of fluorescein control                         inactive
27  CC1(C)Oc2ccc(C#N)cc2[C@@H](N2CCCC2=O)[C@@H]1O  fluorescence, % of fluorescein control                         inactive
28  CC(C)NCC(O)c1ccc2ccccc2c1 (centres undefined)  fluorescence, % of fluorescein control                         inactive

====

tested.system: Cytochrome P450 2C19 (Homo sapiens) (UniProt P33261)
Sequence (P33261 whole entry, looked up): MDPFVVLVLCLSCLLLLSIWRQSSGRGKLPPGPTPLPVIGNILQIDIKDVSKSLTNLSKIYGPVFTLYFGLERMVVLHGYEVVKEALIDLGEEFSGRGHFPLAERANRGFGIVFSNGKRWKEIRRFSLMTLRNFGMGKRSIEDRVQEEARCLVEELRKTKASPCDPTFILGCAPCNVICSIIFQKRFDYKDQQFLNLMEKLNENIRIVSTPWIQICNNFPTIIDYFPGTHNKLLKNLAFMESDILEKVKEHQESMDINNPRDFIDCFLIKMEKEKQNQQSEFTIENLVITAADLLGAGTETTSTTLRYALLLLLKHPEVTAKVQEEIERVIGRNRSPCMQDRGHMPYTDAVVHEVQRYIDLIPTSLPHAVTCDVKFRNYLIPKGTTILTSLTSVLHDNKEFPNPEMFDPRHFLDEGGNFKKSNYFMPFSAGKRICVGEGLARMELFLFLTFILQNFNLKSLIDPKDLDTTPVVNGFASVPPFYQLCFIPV
experiment.summary: Cytochrome P450 Family 2 Subfamily C Member 19 (CYP2C19) small molecule antagonists: luciferase reporter qHTS assay (AID 1671197); also: nearly all actives have a fitted effect of over 65% in size
cond: P450-Glo CYP2C19 enzyme, luciferin luminescence, 1 h; series mostly up to 115 µM
Records with an inconclusive call do not appear. Calls of active or inactive are those of the source. Calls come from the whole dose curve; as a rule, active = well fitted inhibition curve with a large enough effect in the repeat runs; inconclusive = weak or mixed curves; inactive = no such curve, though single readings can be large or run the other way. Positions of bridges follow the written chain, without caps; N, C: chain ends. Non-standard residues stand in square brackets, D forms with d. Residues, ends and D or L forms follow the SMILES beside them. hArg = N=C(N)NCCCC[C@H](N)C(=O)O; Mpa = O=C(O)CCS
Classes used: label 1 = active, label 0 = inactive

compound	class.label
COS(=O)(=O)O	label 0
CCCCOC(=O)C(C)O (stereo not drawn)	label 0
CC(=O)OC(C)=O	label 1
CC(=O)CCC1=C(C)CCCC1(C)C	label 1
Fc1ccccc1	label 0
CC1OCCC1=O (stereo not drawn)	label 0
CN(C)CCN(C)CCO	label 0
CC(=O)CC(=O)OC(C)(C)C	label 0
C[C@]12CCC(=O)C=C1CC[C@H]1[C@@H]3CC[C@](O)(C(=O)CO)[C@@]3(C)C[C@H](O)[C@@]12F	label 0
OCCN1CCOCC1	label 0
Nc1nc(-c2ccccc2)c(Br)c(=O)[nH]1	label 0
COC(=O)CCCCC(=O)O	label 0
CC(Oc1cc(Cl)ccc1Cl)C(=O)O (stereo not drawn)	label 0
C=C(C)C1CC=C(C)C(=O)C1 (stereo not drawn)	label 0
C=CCCCC	label 0
Cn1nnc2c(C(N)=O)ncn2c1=O	label 0
C=CCCCCCCCC	label 0
CC(C)NC(=O)c1ccc(C=O)cc1	label 0
CSc1cnccn1	label 0
c1ccc(-c2nn[nH]n2)cc1	label 0
C=C(C)[C@@H]1CC=C(C)CC1	label 0
O=C[O][Al]([O]C=O)[O]C=O	label 0
O=C=NCC1CCCC(CN=C=O)C1 (stereo not drawn)	label 1
CC/C(C)=N\O[Si](C)(O/N=C(\C)CC)O/N=C(\C)CC	label 1
CO[Si](CCCn1c(=O)n(CCC[Si](OC)(OC)OC)c(=O)n(CCC[Si](OC)(OC)OC)c1=O)(OC)OC	label 0
CC(=O)c1cc(C)oc1C	label 1
NC(=O)[C@@H]1CSSCCC(=O)N[C@@H](CCCCN=C(N)N)C(=O)NCC(=O)N[C@@H](CC(=O)O)C(=O)N[C@@H](Cc2c[nH]c3ccccc23)C(=O)N2CCC[C@H]2C(=O)N1 ([Mpa][hArg]GDWPC-NH2; disulfide 1-7)	label 0
CC(=O)C1C(=O)C=C(C)OC1=O (stereo not drawn)	label 0
Cc1ccc(C)c([N+](=O)[O-])c1	label 0
CCC[C@@H]1C[C@@H](C(=O)N[C@@H]([C@H]2O[C@H](SC)[C@H](O)[C@@H](O)[C@H]2O)[C@@H](C)O)N(C)C1	label 0
CN(C)CC/C=C1/c2ccccc2COc2ccc(CC(=O)O)cc21	label 0
CC(C)(C)NC[C@H](O)COc1cccc2c1CCCC2=O	label 0
CC(C)OC(=O)OCOP(=O)(CO[C@H](C)Cn1cnc2c(N)ncnc21)OCOC(=O)OC(C)C	label 0
CCO[Si](CC)(OCC)OCC	label 0
ONc1ccccc1	label 1
COC(=O)c1cc(Cl)cc(Cl)c1	label 0
Cc1ncc([N+](=O)[O-])n1CC(C)O (stereo not drawn)	label 0
O=C(O)CSCC(=O)NC1CCSC1=O (stereo not drawn)	label 0
